test: Cytotoxicity against human U87MG cells assessed as inhibition of cell growth after 72 hrs by MTT assay; type: functional, cell-based, U-87MG ATCC; details: U-87 MG
Record form. Attribute: IC50. Fill in for each entry.
Unit µM implied. Number only.

Requested field: IC50. Item: COc1cc2c(Oc3ccc(NC(=O)c4nn(-c5ccc(Cl)cc5)c(=O)cc4C)cc3F)ccnc2cc1OCCCN1CCCC1
1.43

Requested field: IC50. Item: COc1cc2c(Oc3ccc(NC(=O)c4nn(-c5ccccc5C(F)(F)F)c(=O)cc4C)cc3F)ccnc2cc1OCCCN1CCOCC1
1.06

Requested field: IC50. Item: COc1cc2c(Oc3ccc(NC(=O)c4nn(-c5ccccc5C)c(=O)cc4C)cc3F)ccnc2cc1OCCCN1CCN(C)CC1
3.72

Requested field: IC50. Item: COc1cc2c(Oc3ccc(NC(=O)c4nn(-c5ccccc5OC(F)(F)F)c(=O)cc4C)cc3F)ccnc2cc1OCCCN1CCCC1
1.28

Requested field: IC50. Item: COc1cc2c(Oc3ccc(NC(=O)c4nn(-c5ccccc5C)c(=O)cc4C)cc3F)ccnc2cc1OCCCN1CCC(C)CC1
2.24

Requested field: IC50. Item: COc1ccc(-n2nc(C(=O)Nc3ccc(Oc4ccnc5cc(OCCCN6CCCCC6)c(OC)cc45)c(F)c3)c(C)cc2=O)cc1
1.8

Requested field: IC50. Item: COc1cc2c(Oc3ccc(NC(=O)c4nn(-c5ccc(Cl)cc5Cl)c(=O)cc4C)cc3F)ccnc2cc1OCCCN1CCCCC1
1.8

* * *

target: Platelet-derived growth factor receptor beta (Homo sapiens, UniProt P09619); assay: Inhibition of PDGFR beta (unknown origin)
Sequence (P09619 whole entry): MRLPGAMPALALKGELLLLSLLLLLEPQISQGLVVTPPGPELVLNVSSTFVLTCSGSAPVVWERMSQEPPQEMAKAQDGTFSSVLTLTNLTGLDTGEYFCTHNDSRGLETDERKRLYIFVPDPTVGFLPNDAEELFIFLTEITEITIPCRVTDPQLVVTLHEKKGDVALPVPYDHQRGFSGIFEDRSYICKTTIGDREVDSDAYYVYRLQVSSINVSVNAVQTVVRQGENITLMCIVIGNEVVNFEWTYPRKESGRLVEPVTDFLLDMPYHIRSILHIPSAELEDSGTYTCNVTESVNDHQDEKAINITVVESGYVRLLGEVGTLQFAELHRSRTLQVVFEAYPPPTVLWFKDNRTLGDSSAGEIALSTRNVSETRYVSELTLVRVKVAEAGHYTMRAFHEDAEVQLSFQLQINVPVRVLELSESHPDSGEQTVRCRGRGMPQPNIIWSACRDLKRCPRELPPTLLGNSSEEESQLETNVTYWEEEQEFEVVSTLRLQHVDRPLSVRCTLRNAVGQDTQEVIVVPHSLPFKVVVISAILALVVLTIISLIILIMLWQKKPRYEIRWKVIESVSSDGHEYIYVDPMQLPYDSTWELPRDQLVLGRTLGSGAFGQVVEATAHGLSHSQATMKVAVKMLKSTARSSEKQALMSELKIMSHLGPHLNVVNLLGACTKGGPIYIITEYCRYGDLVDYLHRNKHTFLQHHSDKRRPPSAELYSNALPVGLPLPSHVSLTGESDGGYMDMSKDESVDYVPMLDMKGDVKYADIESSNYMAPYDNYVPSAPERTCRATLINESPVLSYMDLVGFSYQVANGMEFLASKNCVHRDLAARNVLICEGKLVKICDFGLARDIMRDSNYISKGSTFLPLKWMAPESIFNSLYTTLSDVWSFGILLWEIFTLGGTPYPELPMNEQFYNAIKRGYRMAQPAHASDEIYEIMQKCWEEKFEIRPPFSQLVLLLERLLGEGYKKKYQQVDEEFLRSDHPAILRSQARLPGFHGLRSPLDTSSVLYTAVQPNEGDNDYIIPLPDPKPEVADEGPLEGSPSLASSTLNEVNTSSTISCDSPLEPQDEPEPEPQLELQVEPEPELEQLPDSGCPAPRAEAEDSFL
assay.readout: IC50 (nM)
Unit nM implied. Number only.

Requested field: IC50. Item: COc1cc2c(Oc3ccc(NC(=O)c4nn(-c5ccccc5C(F)(F)F)c(=O)cc4C)cc3F)ccnc2cc1OCCCN1CCOCC1
92.3

* * *

Record form. Attribute: pIC50. Fill in for each entry.
assay: Cytotoxicity against human U87MG cells assessed as inhibition of cell growth after 72 hrs by MTT assay; format: functional, cell-based, U-87MG ATCC; conditions: U-87 MG
The quantity pIC50 is defined as the negative base-10 logarithm of the molar concentration.

Requested field: pIC50. Item: COc1cc2c(Oc3ccc(NC(=O)c4nn(-c5ccccc5C)c(=O)cc4C)cc3F)ccnc2cc1OCCCN1CCCCC1
5.60

Requested field: pIC50. Item: COc1cc2c(Oc3ccc(NC(=O)c4nn(-c5ccccc5)c(=O)cc4C)cc3F)ccnc2cc1OCCCN1CCCCC1
5.86

Requested field: pIC50. Item: COc1cc2c(Oc3ccc(NC(=O)c4nn(-c5ccccc5OC(F)(F)F)c(=O)cc4C)cc3F)ccnc2cc1OCCCN1CCOCC1
5.89

Requested field: pIC50. Item: COc1cc2c(Oc3ccc(NC(=O)c4nn(-c5ccccc5OC(F)(F)F)c(=O)cc4C)cc3F)ccnc2cc1OCCCN1CCCCC1
5.89

Requested field: pIC50. Item: COc1cc2c(Oc3ccc(NC(=O)c4nn(-c5ccc(Cl)cc5)c(=O)cc4C)cc3F)ccnc2cc1OCCCN1CCCCC1
5.85

Requested field: pIC50. Item: COc1cc2c(Oc3ccc(NC(=O)c4nn(-c5ccccc5OC(F)(F)F)c(=O)cc4C)cc3F)ccnc2cc1OCCCN1CCN(C)CC1
5.84

Requested field: pIC50. Item: COc1cc2c(Oc3ccc(NC(=O)c4nn(-c5cccc(F)c5)c(=O)cc4C)cc3F)ccnc2cc1OCCCN1CCCCC1
5.82

Requested field: pIC50. Item: COc1cc2c(Oc3ccc(NC(=O)c4nn(-c5ccccc5C)c(=O)cc4C)cc3F)ccnc2cc1OCCCN1CCOCC1
5.70

Requested field: pIC50. Item: COc1cc2c(Oc3ccc(NC(=O)c4nn(-c5cccc(F)c5)c(=O)cc4C)cc3F)ccnc2cc1OCCCN1CCN(C)CC1
5.80

Requested field: pIC50. Item: COc1ccc(-n2nc(C(=O)Nc3ccc(Oc4ccnc5cc(OCCCN6CCC(C)CC6)c(OC)cc45)c(F)c3)c(C)cc2=O)cc1
5.55

Requested field: pIC50. Item: COc1cc2c(Oc3ccc(NC(=O)c4nn(-c5cccc(F)c5)c(=O)cc4C)cc3F)ccnc2cc1OCCCN1CCCC1
5.77

Requested field: pIC50. Item: COc1cc2c(Oc3ccc(NC(=O)c4nn(-c5ccccc5C(F)(F)F)c(=O)cc4C)cc3F)ccnc2cc1OCCCN1CCCC1
6.00

Requested field: pIC50. Item: COc1cc2c(Oc3ccc(NC(=O)c4nn(-c5ccccc5C)c(=O)cc4C)cc3F)ccnc2cc1OCCCN1CCCC1
5.53

Requested field: pIC50. Item: COc1cc2c(Oc3ccc(NC(=O)c4nn(-c5ccc(Cl)cc5)c(=O)cc4C)cc3F)ccnc2cc1OCCCN1CCOCC1
5.71

Requested field: pIC50. Item: COc1cc2c(Oc3ccc(NC(=O)c4nn(-c5cccc(F)c5)c(=O)cc4C)cc3F)ccnc2cc1OCCCN1CCOCC1
5.70

Requested field: pIC50. Item: COc1cc2c(Oc3ccc(NC(=O)c4nn(-c5ccccc5OC(F)(F)F)c(=O)cc4C)cc3F)ccnc2cc1OCCCN1CCC(C)CC1
6.10

* * *

assay: Cytotoxicity against human U87MG cells assessed as inhibition of cell growth after 72 hrs by MTT assay; assay type: functional, cell-based, U-87MG ATCC; conditions: U-87 MG
Record form. Attribute: IC50. Fill in for each entry.
Unit µM implied. Number only.

Requested field: IC50. Item: COc1cc2c(Oc3ccc(NC(=O)c4nn(-c5ccc(Cl)cc5)c(=O)cc4C)cc3F)ccnc2cc1OCCCN1CCN(C)CC1
1.56

Requested field: IC50. Item: COc1cc2c(Oc3ccc(NC(=O)c4nn(-c5ccccc5)c(=O)cc4C)cc3F)ccnc2cc1OCCCN1CCN(C)CC1
2.12

Requested field: IC50. Item: COc1cc2c(Oc3ccc(NC(=O)c4nn(-c5ccccc5)c(=O)cc4C)cc3F)ccnc2cc1OCCCN1CCOCC1
1.6

Requested field: IC50. Item: COc1cc2c(Oc3ccc(NC(=O)c4nn(-c5ccccc5)c(=O)cc4C)cc3F)ccnc2cc1OCCCN1CCCC1
1.1

Requested field: IC50. Item: COc1cc2c(Oc3ccc(NC(=O)c4nn(-c5ccccc5C(F)(F)F)c(=O)cc4C)cc3F)ccnc2cc1OCCCN1CCC(C)CC1
1.12

Requested field: IC50. Item: COc1cc2c(Oc3ccc(NC(=O)c4nn(-c5ccc(F)c(F)c5)c(=O)cc4C)cc3F)ccnc2cc1OCCCN1CCCC1
1.4

Requested field: IC50. Item: COc1cc2c(Oc3ccc(NC(=O)c4nn(-c5ccc(Cl)cc5)c(=O)cc4C)cc3F)ccnc2cc1OCCCN1CCC(C)CC1
1.35

* * *

target: Mast/stem cell growth factor receptor Kit (Homo sapiens, UniProt P10721)
Sequence (P10721 whole entry): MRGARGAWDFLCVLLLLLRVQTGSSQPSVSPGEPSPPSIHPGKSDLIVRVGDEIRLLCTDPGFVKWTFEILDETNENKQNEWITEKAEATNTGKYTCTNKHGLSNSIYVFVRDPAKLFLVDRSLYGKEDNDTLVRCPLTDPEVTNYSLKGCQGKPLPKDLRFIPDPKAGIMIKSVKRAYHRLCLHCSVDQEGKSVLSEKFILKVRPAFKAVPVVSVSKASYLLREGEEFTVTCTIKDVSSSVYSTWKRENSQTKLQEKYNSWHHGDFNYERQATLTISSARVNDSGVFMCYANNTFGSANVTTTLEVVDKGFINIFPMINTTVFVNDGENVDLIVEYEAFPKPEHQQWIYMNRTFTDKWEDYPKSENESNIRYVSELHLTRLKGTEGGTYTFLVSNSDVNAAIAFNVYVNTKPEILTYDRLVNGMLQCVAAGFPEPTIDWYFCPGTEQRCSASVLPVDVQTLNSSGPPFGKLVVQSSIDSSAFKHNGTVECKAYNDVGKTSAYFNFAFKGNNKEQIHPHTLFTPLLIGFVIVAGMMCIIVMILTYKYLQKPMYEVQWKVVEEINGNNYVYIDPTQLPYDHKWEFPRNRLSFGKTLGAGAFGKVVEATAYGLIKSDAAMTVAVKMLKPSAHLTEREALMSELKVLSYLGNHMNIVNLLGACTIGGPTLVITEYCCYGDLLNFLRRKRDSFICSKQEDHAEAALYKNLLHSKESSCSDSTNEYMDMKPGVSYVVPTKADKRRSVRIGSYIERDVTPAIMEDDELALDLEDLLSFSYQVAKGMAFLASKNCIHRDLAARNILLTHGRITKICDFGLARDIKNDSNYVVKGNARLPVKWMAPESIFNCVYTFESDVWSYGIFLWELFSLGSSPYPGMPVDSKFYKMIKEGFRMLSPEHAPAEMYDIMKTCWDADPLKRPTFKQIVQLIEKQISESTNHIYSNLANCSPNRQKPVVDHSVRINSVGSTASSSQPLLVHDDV
assay.readout: pIC50
The quantity pIC50 is defined as the negative base-10 logarithm of the molar concentration.

Requested field: pIC50. Item: COc1cc2c(Oc3ccc(NC(=O)c4nn(-c5ccccc5C(F)(F)F)c(=O)cc4C)cc3F)ccnc2cc1OCCCN1CCOCC1
8.36

* * *

test: Cytotoxicity against human U87MG cells assessed as inhibition of cell growth after 72 hrs by MTT assay; format: functional, cell-based, U-87MG ATCC; details: U-87 MG
Record form. Attribute: IC50. Fill in for each entry.
Unit nM implied. Number only.

Requested field: IC50. Item: COc1cc2c(Oc3ccc(NC(=O)c4nn(-c5ccccc5C(F)(F)F)c(=O)cc4C)cc3F)ccnc2cc1OCCCN1CCN(C)CC1
1170

Requested field: IC50. Item: COc1ccc(-n2nc(C(=O)Nc3ccc(Oc4ccnc5cc(OCCCN6CCCC6)c(OC)cc45)c(F)c3)c(C)cc2=O)cc1
2960

Requested field: IC50. Item: COc1cc2c(Oc3ccc(NC(=O)c4nn(-c5cccc(F)c5)c(=O)cc4C)cc3F)ccnc2cc1OCCCN1CCC(C)CC1
1800

Requested field: IC50. Item: COc1cc2c(Oc3ccc(NC(=O)c4nn(-c5ccccc5C(F)(F)F)c(=O)cc4C)cc3F)ccnc2cc1OCCCN1CCCCC1
1150

* * *

assay.readout: pIC50
The quantity pIC50 is defined as the negative base-10 logarithm of the molar concentration.

Identify the measured pIC50 of COc1cc2c(Oc3ccc(NC(=O)c4nn(-c5ccccc5C(F)(F)F)c(=O)cc4C)cc3F)ccnc2cc1OCCCN1CCOCC1 for Vascular endothelial growth factor receptor 2 (Homo sapiens).
6.37

* * *

biological target: Epidermal growth factor receptor (Homo sapiens, UniProt P00533)
Sequence (P00533 whole entry): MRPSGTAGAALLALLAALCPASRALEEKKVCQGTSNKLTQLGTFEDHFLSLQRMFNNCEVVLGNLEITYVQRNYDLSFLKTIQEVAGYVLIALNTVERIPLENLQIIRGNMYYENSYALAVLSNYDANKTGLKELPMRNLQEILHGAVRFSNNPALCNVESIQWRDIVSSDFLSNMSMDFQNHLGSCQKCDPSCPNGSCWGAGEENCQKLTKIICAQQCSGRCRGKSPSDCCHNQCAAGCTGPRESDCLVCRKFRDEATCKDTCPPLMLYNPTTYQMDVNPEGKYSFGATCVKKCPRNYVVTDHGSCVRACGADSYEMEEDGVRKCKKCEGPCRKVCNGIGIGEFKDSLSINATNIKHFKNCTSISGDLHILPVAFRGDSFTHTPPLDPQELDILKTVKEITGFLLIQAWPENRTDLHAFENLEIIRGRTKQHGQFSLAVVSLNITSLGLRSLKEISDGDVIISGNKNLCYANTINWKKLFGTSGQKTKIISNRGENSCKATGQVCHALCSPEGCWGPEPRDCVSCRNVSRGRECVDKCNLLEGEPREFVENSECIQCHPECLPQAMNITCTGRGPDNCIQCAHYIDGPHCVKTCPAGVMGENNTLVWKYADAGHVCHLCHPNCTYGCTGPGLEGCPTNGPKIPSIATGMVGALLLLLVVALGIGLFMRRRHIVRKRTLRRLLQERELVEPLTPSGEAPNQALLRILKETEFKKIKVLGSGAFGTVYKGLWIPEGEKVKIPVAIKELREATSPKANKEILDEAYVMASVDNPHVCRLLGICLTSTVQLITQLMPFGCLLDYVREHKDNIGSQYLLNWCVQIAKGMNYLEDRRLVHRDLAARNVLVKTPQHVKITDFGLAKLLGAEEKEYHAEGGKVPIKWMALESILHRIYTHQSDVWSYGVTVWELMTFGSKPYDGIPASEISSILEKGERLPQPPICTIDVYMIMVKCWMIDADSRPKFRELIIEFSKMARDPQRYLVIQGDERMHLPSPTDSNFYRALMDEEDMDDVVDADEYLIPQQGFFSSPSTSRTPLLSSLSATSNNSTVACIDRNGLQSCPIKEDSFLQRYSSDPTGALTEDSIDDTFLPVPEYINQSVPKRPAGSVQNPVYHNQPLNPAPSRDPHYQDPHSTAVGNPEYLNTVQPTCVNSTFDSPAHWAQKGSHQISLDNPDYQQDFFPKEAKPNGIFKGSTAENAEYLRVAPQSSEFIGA
pIC50: −log10 of the molar value.
assay.readout: pIC50

Requested field: pIC50. Item: COc1cc2c(Oc3ccc(NC(=O)c4nn(-c5ccccc5C(F)(F)F)c(=O)cc4C)cc3F)ccnc2cc1OCCCN1CCOCC1
< 5.00
